target-under-test: cyclooxygenase (Homo sapiens)
Construct: heparinised human blood, prior to challenge with the calcium ionophore A23187; endogenous in cells
Sequence (P23219 24-599): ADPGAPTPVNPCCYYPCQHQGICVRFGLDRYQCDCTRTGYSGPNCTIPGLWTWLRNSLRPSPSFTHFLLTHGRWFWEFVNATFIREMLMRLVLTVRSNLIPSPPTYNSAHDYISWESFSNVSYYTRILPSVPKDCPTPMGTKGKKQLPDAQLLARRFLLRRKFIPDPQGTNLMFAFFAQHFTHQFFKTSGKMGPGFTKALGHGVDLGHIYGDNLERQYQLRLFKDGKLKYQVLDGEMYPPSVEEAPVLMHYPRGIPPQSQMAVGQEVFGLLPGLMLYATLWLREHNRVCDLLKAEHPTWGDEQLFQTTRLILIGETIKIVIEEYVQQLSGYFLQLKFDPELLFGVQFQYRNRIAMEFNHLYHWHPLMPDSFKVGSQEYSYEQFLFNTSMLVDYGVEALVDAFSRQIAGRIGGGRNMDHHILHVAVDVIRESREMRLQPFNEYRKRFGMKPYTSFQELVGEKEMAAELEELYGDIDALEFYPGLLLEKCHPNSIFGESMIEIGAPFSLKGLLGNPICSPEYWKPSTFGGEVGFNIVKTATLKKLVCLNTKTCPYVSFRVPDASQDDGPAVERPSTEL
protocol-details: Test (b): heparinised human blood challenged with A23187, TxB2 radioimmunoassay
measured-attribute: IC50

>>> result("CCC(COC)(OC)c1cccc(OCc2ccc3ccccc3c2)c1 (stereo not shown)")
"> 40 µM"
